molecular target: P2Y purinoceptor 12 (Homo sapiens); test: Binding affinity at human recombinant P2Y12 receptor expressed in CHO cells by radioligand binding assay; assay type: cell-based
Sequence (Q9H244 whole entry): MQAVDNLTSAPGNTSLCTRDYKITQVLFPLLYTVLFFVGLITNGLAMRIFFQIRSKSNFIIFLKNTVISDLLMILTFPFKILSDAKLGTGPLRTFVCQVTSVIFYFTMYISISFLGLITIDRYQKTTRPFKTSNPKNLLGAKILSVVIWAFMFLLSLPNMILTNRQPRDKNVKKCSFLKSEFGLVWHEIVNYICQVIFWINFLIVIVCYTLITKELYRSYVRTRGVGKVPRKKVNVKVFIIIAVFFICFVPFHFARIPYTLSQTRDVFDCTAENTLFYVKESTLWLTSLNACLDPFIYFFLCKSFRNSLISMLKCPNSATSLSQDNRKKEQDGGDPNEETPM
measurement label: Ki (nM)

a. CCCCCOC(=O)N1CCN(C(=O)[C@H](CCC(=O)O)NC(=O)c2cc(N3CCC(N4CCOCC4)CC3)nc(-c3ccccc3)n2)CC1
b. CCCCCOC(=O)N1CCN(C(=O)[C@H](CCC(=O)O)NC(=O)c2cc(N3CCC(C(=O)N(CC)CC)CC3)nc(-c3ccccc3)n2)CC1
c. CCCCCOC(=O)N1CCN(C(=O)[C@H](CCC(=O)O)NC(=O)c2cc(N3CCC(C(=O)N4CCCC4)CC3)nc(-c3ccccc3)n2)CC1
d. CCCCCOC(=O)N1CCN(C(=O)[C@H](CCC(=O)O)NC(=O)c2nc(-c3ccccc3)cc(N3CCC(CN)CC3)n2)CC1
Re-order the entries listed above so their Ki values fall from first to last. List the labels in the requested order. d, a, b, c
(d: 9.4 nM, a: 2.9 nM, b: 1.5 nM, c: 0.46 nM)

----------
biological target: P2Y purinoceptor 12 (Homo sapiens); test: Binding affinity at human recombinant P2Y12 receptor expressed in CHO cells by radioligand binding assay; assay type: cell-based
pKi: −log10 of the molar value.
measurement label: pKi

CCCCCOC(=O)N1CCN(C(=O)[C@H](CCC(=O)O)NC(=O)c2nc(NCC3CCNC3)cc(-c3ccccc3)n2)CC1 (some centres undefined)
7.72
CCCCOC(=O)N1CCN(C(=O)[C@H](CCC(=O)O)NC(=O)c2cc(N3CCC(N4CCOCC4)CC3)nc(-c3ccccc3)n2)CC1
8.89
CCCCOC(=O)N1CCN(C(=O)[C@H](CCC(=O)O)NC(=O)c2cc(N3CCC(CCOC)CC3)nc(-c3ccccc3)n2)CC1
8.70
CCCCOC(=O)N1CCN(C(=O)[C@H](CCC(=O)O)NC(=O)c2cc(OCCN(CC)CC)nc(-c3ccccc3)n2)CC1
7.14
CCCCCOC(=O)N1CCN(C(=O)[C@H](CCC(=O)O)NC(=O)c2cc(N3CCN(C)CC3)nc(-c3ccccc3)n2)CC1
8.57
CCCCCOC(=O)N1CCN(C(=O)[C@H](CCC(=O)O)NC(=O)c2cc(N3CCC(CCN)CC3)nc(-c3ccccc3)n2)CC1
8.57

I. CCCCCOC(=O)N1CCN(C(=O)[C@H](CCC(=O)O)NC(=O)c2nc(OCC3CCN(C)CC3)cc(-c3ccccc3)n2)CC1
II. CCCCCOC(=O)N1CCN(C(=O)[C@H](CCC(=O)O)NC(=O)c2nc(-c3ccccc3)cc(N3CCN(C(N)=O)CC3)n2)CC1
III. CCCCOC(=O)N1CCN(C(=O)[C@H](CCC(=O)O)NC(=O)c2cc(N3CCC(C(=O)N(C)C)CC3)nc(-c3ccccc3)n2)CC1
Order the items by recorded pKi; the first position goes to the largest value. List the labels in the requested order. III, II, I
